Hi there, I'd appreciate the recorded melting point for every entry that follows.

Reference set, count: 5
{"columns": ["Compound", "melting point"],
 "data": [
  ["CC(C)n1c(=O)[nH]c2ncc(-c3ccc(O)cc3)nc21", "323 to 324 °C"],
  ["Brc1ccn2nc(N3CCCC3)nc2c1", "170 to 172 °C"],
  ["CN1CCN(C2=Nc3cc(Br)ccc3N3CCc4cccc2c43)CC1", "153 to 155 °C"],
  ["COc1cc(C(C)C)c2c(c1)S(=O)(=O)N(COC(=O)c1c(C)nn(-c3ccccc3)c1C)C2=O", "167 to 169 °C"],
  ["CCCc1c(N)c(C(N)=O)nn1C", "170 to 174 °C"]
]}

For the 4 compounds below, give their melting point values.
1. CCOC(=O)c1cccc(NC(=O)Nc2ccc(-n3nc(C(F)(F)F)cc3C(F)(F)F)cc2)c1
2. C=C(C)Cn1c(=O)n(C)c(=O)c2cc(Cc3ccc(OC)cc3)sc21
3. COc1cc2c(cc1OC)CN(CCCOc1ccc(NC(=O)c3cccc4c(=O)c5ccccc5sc34)cc1)CC2
4. CON=C(C)CCCn1c(C)nc2c(N)nc3ccccc3c21

[out]
1: 211 to 212 °C; 2: 111 °C; 3: 210 °C; 4: 158 to 161 °C

// each compound listed below needs its melting point
1. CC(C)(C)c1nnc(S)o1
2. N#CC(c1cccc(Cl)c1)N1CCOCC1 (configuration not stated)
3. CC1(C)C=C(c2cc(C#N)ccc2O)c2cc(C#N)ccc2O1

[out]
["79 to 80 °C", "72 to 73 °C", "213 to 215 °C"]

Go through the items and report each one's melting point.
1. Oc1ccc(-c2cc3ccccc3nc2Cl)cc1
2. Nc1nc2ccc(OC(F)(F)F)c([N+](=O)[O-])c2s1
3. CC1(C)CS(=O)(=O)CC(C)(C)c2[nH]c(-c3ccccc3)nc21
4. COc1nc(C)cnc1N

[out]
1: 164 to 166 °C; 2: 180 °C; 3: 260 to 263 °C; 4: 75 to 76.5 °C

[in] Dear colleague, I am looking for the recorded melting point of the following compound: `O=C(O)c1cc(S(=O)(=O)NCCc2ccccc2Cl)ccc1Cl`
[out] 175 to 177 °C

----------
Quantity Measured: melting point

Provide melting point values for the following items, in order.
1. O=C=Nc1cccc(-c2nc3ccccc3c(=O)o2)c1
2. CCn1c(-c2cc(OC)c(OC)cc2S(N)(=O)=O)cc(=Nc2c(C)cc(C)c(S(N)(=O)=O)c2C)n(C)c1=O
3. CC(C)Oc1ccc(OCc2ccccc2)cc1-c1nc2cccnc2[nH]1
4. CCOC(=O)N1CCN(C2Cc3ccccc3Sc3cc(Cl)c(Cl)cc32)CC1 (configuration not stated)
5. CC(C)(O)c1cnn2c(-c3cccc(-c4ccccc4C#N)c3)cnc2n1
6. O=C(O)COc1cccc(CCCOC(c2ccccc2)c2ccccc2)c1

[out]
1. 115 to 121 °C
2. 173 to 178 °C
3. 160 to 162 °C
4. 184 to 186 °C
5. 166 °C
6. 110 to 112 °C

// for each compound in input: emit melting point
1. COc1cc(Cc2cnc(CCCOc3cccc(CN4CCCCC4)c3)[nH]c2=O)ccn1
2. CNC(=O)C1CCCc2c1c1cc(OC)ccc1n2Cc1ccccc1 (configuration not stated)
3. CS(=O)(=O)Cc1cccc(C(F)(F)F)c1N
4. CNC(=S)n1nc(N)nc1N
5. Cc1cc2c(c(C)c1NC(=O)CC(C)(C)C)C(c1ccccc1)CO2 (configuration not stated)
6. Cc1c(-c2ccccc2)[nH]c(=O)n1C1CCN(CCc2ccccc2)CC1
7. O=C(c1cc(C(F)(F)F)cc(C(F)(F)F)c1)N1CCC2(CC1)C(=O)NCN2c1ccccc1
8. CC(Oc1ccc(Oc2ncc(Cl)cc2F)cc1)C(=O)O (configuration not stated)

[out]
["93 to 94 °C", "259 to 261 °C", "96 to 98 °C", "176 to 178 °C", "158 to 159 °C", "153 to 155 °C", "251 °C", "95 to 97 °C"]

// for each compound in input: emit melting point
1. CNC(=O)c1nc(Cl)c(Cl)[nH]1
2. CCOC(=O)N1CCc2nc(-c3ccncn3)cc(=O)n2CC1
3. COc1ccccc1-c1ccc2ccc(NC(=O)c3cccc(Br)c3)nc2n1
4. CS(=O)(=O)c1cc(S(F)(F)(F)(F)F)ccc1C(=O)c1cnoc1C1CC1
5. Cn1ncnc1COc1nc2c(-c3ccccc3)nncn2c1-c1ccccc1
6. CC(=O)c1ccc(Oc2ccc(S(=O)(=O)C3CCCCC3)cn2)cc1
7. CCOC(=O)c1cc2ccccc2nn1

[out]
240 °C
144 to 146 °C
110 °C
168 to 170 °C
179 °C
116 to 118 °C
158 to 160 °C

List the reported melting point of each compound below.
1. CC(C)[C@@H](NS(=O)(=O)c1ccc(-c2ccsc2)cc1)C(=O)O
2. Nc1ccc(NC(=O)N(C[C@H]2CC[C@H](CN(C(=O)Nc3ccc(N)cc3)C3CCCCC3)CC2)C2CCCCC2)cc1
3. CN1CN(c2cccc([N+](=O)[O-])c2)c2ncccc2C1=O

[out]
1. 169 °C
2. 185 to 188 °C
3. 247 to 248 °C

Look at each compound and report its melting point.
1. CNC(=O)[C@@H](C[C@H](O)[C@H](CC(C)C)NC(=O)OC(C)(C)C)C(C)(C)O
2. Cc1ccc(Cc2ccc3nc(N)sc3c2)s1
3. O=C1Nc2ccc3sccc3c2C1=O

[out]
1. 121 to 123 °C
2. 179 to 181 °C
3. 200 to 201 °C

Batch: melting point for all items listed.
1. CON=Cc1ccc2c(c1)ncn2-c1cccc(-c2ccoc2)c1
2. CN1CCC(NC(c2cccc(C(F)(F)F)c2)c2nc3ccccc3[nH]2)CC1 (configuration not stated)
3. CC(C)C(NC(=O)c1ccc(C(=O)NCc2ccc(Cl)cc2)cc1)C(=O)N1CCCC1C(=O)NC(C(=O)C(F)(F)F)C(C)C (mixture of isomers)
4. CC1(C)CCC[C@H](N2C(=O)c3ccccc3C2=O)C(=O)N1

[out]
1: 147 to 148 °C; 2: 90 °C; 3: 87 to 89 °C; 4: 193 to 194 °C

// for each compound below, give its melting point
1. Cn1nc2c(c1S(C)(=O)=O)CCCN2c1ccc(Cl)cc1Cl
2. Cc1nc(N2CCN(CC3CC3)C2=O)sc1C(=O)NCc1ccccn1

[out]
1: 182 to 183 °C; 2: 148 to 151 °C

Field: melting point. Fill in for each record below.
1. C[Si](C)(C)CNc1ccc([N+](=O)[O-])cc1
2. Cn1ncc(C=O)c1-c1ccoc1
3. Nc1nc(CN2C(=O)C3(COc4cc5c(cc43)OCO5)c3ccccc32)cs1 (configuration not stated)
4. COc1cc(C)c(Cl)c2c(=O)oc3c(c12)C(=O)c1cccc(O)c1C3=O

[out]
1: 120 °C; 2: 70 to 71 °C; 3: 230 to 235 °C; 4: 294 to 296 °C
